These data points were gathered from PubChem BioAssay (NCI).

Please respond with reported TGI for every item in the list.
Test system: IGROV1 ovarian
Assay: NCI tumour cell line growth inhibition, 48 h

Quick one: TGI of CC(C(N)=O)N(C)C(=O)c1cc2ccccc2[n+](Cc2ccccc2)c1 (centres undefined) ?
> 100 µM

Tell me the measured TGI of O=C(O)c1ccccc1C1CCCc2c1[nH]c1ccccc21 (centres undefined) , please.
> 100 µM

# get_value(readout='TGI', item= CNC(=O)CCC(NC(=O)OC(C)(C)C)C(=O)NC(Cc1ccc(NC(=O)CCCCC(C)=O)cc1)C(=O)NCC(=O)NC (centres undefined) )
> 100 µM

Entry O=C1C[C@H](Sc2ccccc2)C2(OCCO2)[C@H]2ON3CCC[C@@H]3[C@@H]12 has what TGI?
2.46 µM

// TGI lookup, key: Cc1nc(-c2nc(C)c(C(=O)/C=C/c3ccc(N(C)C)cc3)s2)sc1C(=O)/C=C/c1ccc(N(C)C)cc1
> 100 µM

Please report the recorded TGI for Nc1nc[n+](Cc2ccccc2CCO)c2nc[nH]c12 .
> 100 µM

Look at this compound and give its reported TGI. C[N+]1(C)C/C(=C/c2ccc(F)cc2)C(=O)/C(=C\c2ccc(F)cc2)C1
70.1 µM

Endpoint output: TGI of CC[C@H]1C[C@@H](O)[C@@H]2[C@H](O)[C@H](O)CN2C1 . Value?
> 100 µM

Could you tell me which TGI is on file for O=C(c1ccccc1)N1C2C3CC(OCc4ccccc4)(OCc4ccccc4)C(O3)C21 (centres undefined) ?
> 100 µM

Name the recorded TGI for O=C1/C(=C\c2ccc(Br)cc2)CN(C(=O)c2ccccc2F)C/C1=C\c1ccc(Br)cc1 .
4.89 µM

// TGI lookup, key: O=C(C(=NC12CC3CC(CC(C3)C1)C2)NNc1ccc([N+](=O)[O-])cc1[N+](=O)[O-])C(Br)C(=O)c1ccccc1 (centres undefined)
> 10 µM

Quick one: TGI of C=CCN(C(=O)OC(C)(C)C)C1=CC2C(C)=CN(S(=O)(=O)c3ccccc3)C2C(OCc2ccccc2)=C1 (centres undefined) ?
> 100 µM

Please report the recorded TGI for COc1nc(NC2OC(COC(C)=O)C(OC(C)=O)C(OC(C)=O)C2OC(C)=O)c(N=CC=Nc2c(NC3OC(COC(C)=O)C(OC(C)=O)C(OC(C)=O)C3OC(C)=O)nc(OC)n(C)c2=O)c(=O)n1C (centres undefined) .
> 100 µM

Would you mind telling me what TGI value was observed for Nc1nc2c(c3cnccc13)C(c1cccc(Br)c1)Cc1cnccc1-2 (centres undefined) ?
17.8 µM

====

Test system: HCC-2998 colon
Assay: NCI tumour cell line growth inhibition, 48 h; in the data active = GI50 below about 0.43 µM; inactive = the rest
Just give me one of these, please: active, inactive

Outcome? Cc1cc(OCc2n[nH]c(=S)n2/N=C/c2ccc(F)cc2)ccc1Cl
inactive

Test call, this compound: O=c1c2cc(I)ccc2nc(-c2cccs2)n1-c1ccc(S(=O)(=O)Nc2nccs2)cc1
inactive

Can you look up the reported call for Nc1nc2c(c3cnccc13)C(c1cccc(Br)c1)Cc1cnccc1-2 (stereo not given) for me?
inactive

Given Ic1ccc2[nH]cc(SSc3c[nH]c4ccc(I)cc34)c2c1 , state the outcome it received in this test.
inactive

Kindly provide the recorded test outcome for the following compound: CC#Cc1nc2ccccc2c(=O)[nH]1
inactive

// outcome(item) with item = CC1=C(SCCC(=O)OCC(=O)NCCC[Te]c2ccccc2)C(=O)c2ccccc2C1=O
inactive

Write down the call the test reported for this compound. Item: O=C(OC(CNc1c(C(=O)c2ccccc2)c(=O)n(Cc2ccccc2)c(=O)n1Cc1ccccc1)CN1CCOCC1)c1ccccc1 (stereo not given)
inactive

Hi team, can someone confirm the assay call for Nc1ccc2c(c1)Cc1cc(Cl)c(Cl)cc1-2 ?
inactive

GET /call?item= COc1cc(Nc2cc(C)nc(N3CCN(c4ccnc5cc(Cl)ccc45)CC3)n2)cc(OC)c1 returns the recorded outcome of this test.
active

# lookup: test call for COc1cc2c(cc1O)N=C[C@@H]1C[C@@H](F)CN1C2=O
inactive
